Measured melting point by item

| Compound | melting point |
| --- | --- |
| CC(C)(Sc1ccc2c(CC(=O)O)csc2c1)c1cccc2nc(-c3ccc(C(F)(F)F)cc3)oc12 | 110 to 113 °C |
| CCc1cc(SC(C)(C)c2cccc3nc(-c4ccc(C(F)(F)F)cc4)oc23)ccc1OCC(=O)O | 122 to 125 °C |
| Cc1cc(SCc2cccc3nc(-c4ccc(C(F)(F)F)cc4)sc23)ccc1OCC(=O)O | 193 to 196 °C |
| Cc1cc(SCc2ccc3sc(-c4ccc(C(F)(F)F)cc4)nc3c2)ccc1OCC(=O)O | 138 to 140 °C |
| CCc1cc(SCc2ccc3sc(-c4ccc(C(F)(F)F)cc4)nc3c2)ccc1OCC(=O)O | 140 to 142 °C |
| Cc1cc(SC(C)c2ccc3nc(-c4ccc(C(F)(F)F)cc4)sc3c2)ccc1OCC(=O)O (racemic) | 170 to 173 °C |
| O=C(O)Cc1cccc(SCc2cccc3[nH]c(-c4ccc(C(F)(F)F)cc4)nc23)c1 | 180 to 183 °C |
| Cc1cc(SCc2cccc3nc(-c4ccc(C(F)(F)F)cc4)oc23)ccc1OCC(=O)O [Example 74] | 172 to 174 °C |
| CCc1cc(SCc2ccnc3[nH]c(-c4ccc(C(F)(F)F)cc4)nc23)ccc1OCC(=O)O | 188 to 190 °C |
| Cc1cc(SCc2ccnc3oc(-c4ccc(C(F)(F)F)cc4)nc23)ccc1CCC(=O)O | > 260 °C (dec.) |
| CCc1cc(SCc2cccc3nc(-c4ccc(C(F)(F)F)cc4)oc23)ccc1OCC(=O)O | 170 to 173 °C |
| Cc1cc(OCc2ccc3sc(-c4ccc(C(F)(F)F)cc4)nc3c2)ccc1CCC(=O)O | 174 to 176 °C |
| Cc1cc(SCc2ccc3sc(-c4ccc(C(F)(F)F)cc4)nc3c2)ccc1CCC(=O)O | 141 to 143 °C |
| Cc1cc(SCc2cccc3oc(-c4ccc(C(F)(F)F)cc4)nc23)ccc1CCC(=O)O | 181 to 183 °C |
| Cc1cc(SCc2cccc3[nH]c(-c4ccc(C(F)(F)F)cc4)nc23)ccc1CCC(=O)O | 214 to 216 °C |
| Cc1cc(SCc2cccc3[nH]c(-c4ccc(C(F)(F)F)cc4)cc23)ccc1OCC(=O)O | 85 to 88 °C |
